Overview of reported solubility across a group of compounds:
Assay: Solubility in water and at pH 7.4
Assay type: physicochemical
Conditions: water
Observation Type: solubility

                                   compound     reported
0  C[C@H]1[C@H](N)CN1c1nc2c(cc1F)c(=O)c(C(=O)O)cn2C1CC1 [Exemple 1a, reference compound]     23 µg/mL
1  C[C@@H]1[C@@H](NC(=O)[C@@H](C)N)CN1c1nc2c(cc1F)c(=O)c(C(=O)O)cn2C1CC1 [Exemple 4fa]  > 500 µg/mL
2  CC(C)C[C@H](N)C(=O)NC1CN(c2nc3c(cc2F)c(=O)c(C(=O)O)cn3-c2ccc(F)cc2F)C1 [Exemple 4bL]  > 500 µg/mL
3  NCC(=O)NC1CN(c2nc3c(cc2F)c(=O)c(C(=O)O)cn3-c2ccc(F)cc2F)C1 [Exemple 4bG]  > 500 µg/mL
4  C[C@H](N)C(=O)N[C@@H]1CN(c2cc3c(cc2F)c(=O)c(C(=O)O)cn3-c2ccc(F)cc2F)[C@H]1C [Exemple 4eA]  > 500 µg/mL
5  CC(C)C[C@H](N)C(=O)N[C@@H]1CN(c2nc3c(cc2F)c(=O)c(C(=O)O)cn3C2CC2)[C@H]1C [Exemple 4aL]  > 500 µg/mL
6  NC1CN(c2nc3c(cc2F)c(=O)c(C(=O)O)cn3-c2ccc(F)cc2F)C1 [Exemple 1b, reference compound]      3 µg/mL
7  C[C@H](N)C(=O)NC1CN(c2nc3c(cc2F)c(=O)c(C(=O)O)cn3-c2ccc(F)cc2F)C1 [Exemple 4bA]    128 µg/mL
8  C[C@H](N)C(=O)N[C@@H](C)C(=O)N[C@@H]1CN(c2nc3c(cc2F)c(=O)c(C(=O)O)cn3C2CC2)[C@H]1C [Exemple 4aAA]  > 500 µg/mL
